# tested.system: KinA/Spo0F (sporulation kinase A/sporulation initiation phosphotransferase F) (Bacillus subtilis (strain 168), UniProt P06628+P16497)
# method: Inhibition of histidine protein kinase (KinA) phosphorylation in the presence of response regulator (Spo0F)
# Assay type: protein assay
parameter: IC50

Record summary for O=C(Nc1ccc(Cl)c(Cl)c1)c1cc(Cl)cc(Cl)c1O [3,3',4',5-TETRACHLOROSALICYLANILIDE] : reported IC50 = 45 µM

Record summary for COc1c(I)cc(I)cc1C(=O)Nc1cc(C)c(C(C#N)c2ccc(Cl)cc2)cc1Cl (stereo not given) : reported IC50 = > 500 µM

Record summary for O=C(Nc1cc(Cl)cc(Cl)c1O)c1ccc(Cl)c(Cl)c1 : reported IC50 = > 500 µM

Record summary for Cc1cc(NC(=O)c2cc(I)c(O)c(I)c2)c(Cl)cc1C(C#N)c1ccc(Cl)cc1 (stereo not given) : reported IC50 = 9 µM

Record summary for O=C(Nc1ccc(Cl)c(Cl)c1)c1cc(Cl)c(O)c(Cl)c1 : reported IC50 = 98 µM

Record summary for O=C(Nc1ccc(Cl)c(Cl)c1)c1cc(Cl)cc(Cl)c1 : reported IC50 = > 500 µM

Record summary for Cc1cc(N(C)C(=O)c2cc(I)cc(I)c2O)c(Cl)cc1C(C#N)c1ccc(Cl)cc1 (stereo not given) : reported IC50 = > 500 µM

Record summary for O=C(Nc1ccc(Cl)c(Cl)c1)c1cc(I)cc(I)c1O : reported IC50 = 22 µM

Record summary for Cc1cc(NC(=O)c2cc(Cl)cc(Cl)c2O)c(Cl)cc1C(C#N)c1ccc(Cl)cc1 (stereo not given) : reported IC50 = 4.8 µM

Record summary for O=C(Nc1ccccc1)c1cc(Cl)cc(Cl)c1O : reported IC50 = 385 µM
